Recorded values, source patent US9944589B2.

Target: human recombinant KDM1A (LSD1)/CoRest (Homo sapiens, UniProt O60341)
Construct: made in house; host or cells: E. coli
Experiment: Assay of enzyme inhibition of KDM1A (LSD1), Amplex UltraRed/peroxidase coupled
Format: biochemical
Conditions: 15 min preincubation, 4.5 μM mono-methylated H3-K4 peptide, range classes, read-out: IC50 [μM], KDM1A inhibition assay
Counter-ions that a name gives are not always drawn.
IC50 reference
reported-metric: IC50

{"compound": "CC[C@@]1(N)C[C@H]1c1ccccc1F (relative stereo) [Example A-25, hydrochloride]", "reported-metric": "IC50", "measurement": "0.1 to 1 µM"}
{"compound": "N[C@]1(c2ccccc2)C[C@H]1c1ccc(NC(=O)c2ccncc2)cc1 (relative stereo) [Example A-108, dihydrochloride]", "reported-metric": "IC50", "measurement": "< 0.1 µM"}
{"compound": "CC[C@@]1(N)C[C@H]1c1ccc(NC(=O)Cc2ccc3ccccc3c2)cc1 (relative stereo) [Example A-74, hydrochloride]", "reported-metric": "IC50", "measurement": "< 0.1 µM"}
{"compound": "N[C@]1(Cc2ccc3ccccc3c2)C[C@H]1c1cccc(Cl)c1 (relative stereo) [Example A-56, hydrochloride]", "reported-metric": "IC50", "measurement": "0.1 to 1 µM"}
{"compound": "N[C@]1(c2ccccc2)C[C@H]1c1ccc(NC(=O)c2cccc(-c3ccccc3)c2)cc1 (relative stereo) [Example A-106]", "reported-metric": "IC50", "measurement": "< 0.1 µM"}
{"compound": "N[C@]1(Cc2ccc3ccccc3c2)C[C@H]1c1ccc(Br)cc1 (relative stereo) [Example A-29, hydrochloride]", "reported-metric": "IC50", "measurement": "0.1 to 1 µM"}
{"compound": "CC[C@@]1(N)C[C@H]1c1ccc(NC(=O)Cc2ccccc2)cc1 (relative stereo) [Example A-39, hydrochloride]", "reported-metric": "IC50", "measurement": "< 0.1 µM"}

====

Molecular target: Human recombinant MAO B (Homo sapiens, UniProt P27338)
Sequence (P27338 1-520): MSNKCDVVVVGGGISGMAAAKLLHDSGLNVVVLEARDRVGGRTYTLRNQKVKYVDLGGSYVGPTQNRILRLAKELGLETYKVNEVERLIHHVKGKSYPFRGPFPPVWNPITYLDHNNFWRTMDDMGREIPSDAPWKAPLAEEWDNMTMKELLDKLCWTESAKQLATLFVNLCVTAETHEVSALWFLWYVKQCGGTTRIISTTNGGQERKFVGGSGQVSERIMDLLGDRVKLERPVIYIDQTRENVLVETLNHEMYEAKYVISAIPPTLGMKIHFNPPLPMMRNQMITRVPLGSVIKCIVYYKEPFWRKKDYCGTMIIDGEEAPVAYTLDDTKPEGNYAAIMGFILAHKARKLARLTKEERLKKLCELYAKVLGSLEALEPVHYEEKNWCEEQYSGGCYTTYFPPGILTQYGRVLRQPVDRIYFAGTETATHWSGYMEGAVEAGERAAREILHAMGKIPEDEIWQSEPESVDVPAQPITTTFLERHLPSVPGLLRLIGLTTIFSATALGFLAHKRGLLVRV
Conditions: ratio of IC50 against MAO-B over IC50 for LSD1
Structures can show the parent of a compound that is named as a salt.

{"compound": "CC[C@@]1(N)C[C@H]1c1ccc(NC(=O)c2ccc(-c3ccoc3)cc2)cc1 (relative stereo) [Example A-78, hydrochloride]", "IC50 (MAO-B)/IC50 (LSD1)": 60}
{"compound": "CC[C@]1(N)C[C@@H]1c1ccc(NC(=O)c2ccccc2)cc1.Cl (relative stereo) [Example A-47]", "IC50 (MAO-B)/IC50 (LSD1)": ">100"}
{"compound": "CC[C@@]1(N)C[C@H]1c1ccc(NC(=O)c2ccc(-c3ccccc3)cc2)cc1 (relative stereo) [Example A-36, hydrochloride]", "IC50 (MAO-B)/IC50 (LSD1)": 16}
{"compound": "CC[C@@]1(N)C[C@H]1c1ccc(NC(=O)c2cccc(N3CCOC3=O)c2)cc1 (relative stereo) [Example A-98]", "IC50 (MAO-B)/IC50 (LSD1)": ">100"}
{"compound": "N[C@]1(CCc2ccccc2)C[C@H]1c1ccc(NC(=O)c2ccccc2)cc1 (relative stereo) [Example A-114, hydrochloride]", "IC50 (MAO-B)/IC50 (LSD1)": ">100"}
{"compound": "CN1CCN(c2ccc(C(=O)Nc3ccc([C@@H]4C[C@]4(N)CCc4ccccc4)cc3)cc2)CC1 (relative stereo) [Example A-116, dihydrochloride]", "IC50 (MAO-B)/IC50 (LSD1)": ">100"}
